System: Heliothis viriscens (tobacco budworm)
PROCEDURE SUMMARY: whole plant or invertebrate
Type: in vivo
CONDITIONS USED: in Gossypium hirsutum, 72 h, read-out: grading of mortality, HV
Recorded mortality at 500 ppm by entry
MEASUREMENT TYPE: mortality at 500 ppm

> print(dat)
                                      mol      measurement.type      result
1  CC(C)(C=C(Cl)Cl)COCc1cccc(Oc2ccccc2)n1  mortality at 500 ppm  80 to 100%
2  ClC(Cl)=CC1(COCc2cccc(Oc3ccccc3)c2)CC1  mortality at 500 ppm       < 50%
3    CC(C)(C=C(F)F)COCc1cccc(Oc2ccccc2)n1  mortality at 500 ppm  80 to 100%
4        C=CC1(COCc2cccc(Oc3ccccc3)c2)CC1  mortality at 500 ppm       < 50%

###

Tested on: Heliothis viriscens (tobacco budworm)
PROCEDURE SUMMARY: whole plant or invertebrate
Format: in vivo
CONDITIONS USED: in Gossypium hirsutum, 72 h, read-out: grading of mortality, HV
Recorded mortality at 500 ppm by entry
MEASUREMENT TYPE: mortality at 500 ppm

> print(dat)
                                        mol      result
1      CC(C)(/C=C/Br)COCc1cccc(Oc2ccccc2)c1       < 50%
2  CC(C)(C=C(Cl)Cl)COCc1ccc(F)c(Cc2ccccc2)c1       < 50%
3          C=CC(C)(C)COCc1cccc(Oc2ccccc2)c1       < 50%
4     CC(C)(C=C(F)Cl)COCc1cccc(Oc2ccccc2)n1       < 50%
5  CC(C)(C=C(Cl)Cl)COCc1ccc(F)c(Oc2ccccc2)c1  80 to 100%

###

Test system: Heliothis viriscens (tobacco budworm)
PROCEDURE SUMMARY: whole plant or invertebrate
Assay type: in vivo
CONDITIONS USED: in Gossypium hirsutum, 72 h, read-out: grading of mortality, HV
Description: The activity of the compound was determined using a variety of insect pests. The compound was used in the form of liquid preparations containing 500 parts per million (ppm) by weight of the compound. The preparations were made by dissolving the compound in acetone and diluting the solutions with water containing 0.01% by weight of a wetting agent sold under the trade name "LISSAPOL" NX until the liquid preparations contained the required concentration of the compound. […]
MEASUREMENT TYPE: mortality at 500 ppm

> print(dat)
                                    compound                           study.target      measurement.type      result
 1      CC(C)(C=C(F)F)COCc1cccc(Oc2ccccc2)c1  Heliothis viriscens (tobacco budworm)  mortality at 500 ppm       < 50%
 2       C=CC(C)(C)COCc1ccc(F)c(Oc2ccccc2)c1  Heliothis viriscens (tobacco budworm)  mortality at 500 ppm       < 50%
 3     CC(C)(C=C(F)Cl)COCc1cccc(Oc2ccccc2)c1  Heliothis viriscens (tobacco budworm)  mortality at 500 ppm   50 to 79%
 4    CC(C)(C=C(Cl)Cl)COCc1cccc(Oc2ccccc2)c1  Heliothis viriscens (tobacco budworm)  mortality at 500 ppm       < 50%
 5          C=CC(C)(C)COCc1cccc(Oc2ccccc2)n1  Heliothis viriscens (tobacco budworm)  mortality at 500 ppm       < 50%
 6   CC(C)(C=C(F)F)COCc1ccc(F)c(Oc2ccccc2)c1  Heliothis viriscens (tobacco budworm)  mortality at 500 ppm  80 to 100%
 7       C=CC(C)(C)COCc1ccc(F)c(Cc2ccccc2)c1  Heliothis viriscens (tobacco budworm)  mortality at 500 ppm       < 50%
 8  C=CC(C)(CC)COCc1cccc(Oc2ccccc2)c1 (stereo not shown)  Heliothis viriscens (tobacco budworm)  mortality at 500 ppm       < 50%
 9   CC(C)(C=C(F)F)COCc1ccc(F)c(Cc2ccccc2)c1  Heliothis viriscens (tobacco budworm)  mortality at 500 ppm  80 to 100%
10    CC(C)(C=C(Br)Br)COCc1cccc(Oc2ccccc2)c1  Heliothis viriscens (tobacco budworm)  mortality at 500 ppm       < 50%

###

Tested on: Chilo partellurs (Stem borers)
PROCEDURE SUMMARY: Residual test, mortality of stem borers (CP)
Format: in vivo
CONDITIONS USED: 72 h, oil seed rape leaf, 3 days, read-out: grading of mortality, CP
Recorded mortality at 500 ppm by entry
MEASUREMENT TYPE: mortality at 500 ppm

> print(dat)
                                   compound      measurement.type      result
1  CC(C)(C=C(Cl)Cl)COCc1ccc(F)c(Oc2ccccc2)c1 [Compound 1]  mortality at 500 ppm  80 to 100%
2  CC(C)(C=C(Br)Br)COCc1cccc(Oc2ccccc2)c1 [Compound 3]  mortality at 500 ppm  80 to 100%
3  C=CC1(COCc2cccc(Oc3ccccc3)c2)CC1 [Compound 6]  mortality at 500 ppm       < 50%
4  CC(C)(/C=C/Br)COCc1cccc(Oc2ccccc2)c1 [Compound 7]  mortality at 500 ppm       < 50%
5  CC(C)(C=CCl)COCc1cccc(Oc2ccccc2)c1 [Compound 10]  mortality at 500 ppm       < 50%

###

Recorded mortality at 500 ppm by entry
Tested on: Nilaparvata lugens (green leaf hopper)
PROCEDURE SUMMARY: Contact test, mortality of Nilaparvata lugens (NL)
Assay type: in vivo
CONDITIONS USED: 144 h, cabbage leaf, 6 days, read-out: grading of mortality, NL
MEASUREMENT TYPE: mortality at 500 ppm

> print(dat)
                                    compound      result
 1  CC(C)(C=C(Cl)Cl)COCc1cccc(Oc2ccccc2)n1 [Compound 13]  80 to 100%
 2  CC(C)(C=C(F)F)COCc1cccc(Oc2ccccc2)c1 [Compound 17]  80 to 100%
 3  CC(C)(/C=C/Br)COCc1cccc(Oc2ccccc2)c1 [Compound 7]   50 to 79%
 4  CC(C)(C=C(Br)Br)COCc1cccc(Oc2ccccc2)c1 [Compound 3]   50 to 79%
 5  C=CC(C)(C)COCc1ccc(F)c(Cc2ccccc2)c1 [Compound 14]  80 to 100%
 6  C=CC(C)(C)COCc1ccc(F)c(Oc2ccccc2)c1 [Compound 5]  80 to 100%
 7  CC(C)(C=CCl)COCc1cccc(Oc2ccccc2)c1 [Compound 10]  80 to 100%
 8  CC(C)(C=C(F)Cl)COCc1cccc(Oc2ccccc2)n1 [Compound 19]  80 to 100%
 9  CC(C)(C=C(F)Cl)COCc1cccc(Oc2ccccc2)c1 [Compound 11]  80 to 100%
10  CC(C)(C=C(F)F)COCc1ccc(F)c(Oc2ccccc2)c1 [Compound 15]  80 to 100%

###

Recorded mortality at 500 ppm by entry
Test system: Diabrotica balteata (rootworm larvae)
PROCEDURE SUMMARY: Residual test, mortality of rootworm larvae (DB)
Format: in vivo
CONDITIONS USED: 72 h, filter paper/maize seed, 3 days, read-out: grading of mortality, DB
MEASUREMENT TYPE: mortality at 500 ppm

> print(dat)
                                    molecule      measurement.type      result
 1   CC(C)(C=C(F)F)COCc1ccc(F)c(Oc2ccccc2)c1  mortality at 500 ppm  80 to 100%
 2          C=CC1(COCc2cccc(Oc3ccccc3)c2)CC1  mortality at 500 ppm       < 50%
 3   CC(C)(C=C(F)F)COCc1ccc(F)c(Cc2ccccc2)c1  mortality at 500 ppm  80 to 100%
 4    ClC(Cl)=CC1(COCc2cccc(Oc3ccccc3)c2)CC1  mortality at 500 ppm   50 to 79%
 5    CC(C)(C=C(Cl)Cl)COCc1cccc(Oc2ccccc2)c1  mortality at 500 ppm       < 50%
 6     CC(C)(C=C(F)Cl)COCc1cccc(Oc2ccccc2)c1  mortality at 500 ppm  80 to 100%
 7      CC(C)(/C=C/Br)COCc1cccc(Oc2ccccc2)c1  mortality at 500 ppm       < 50%
 8  CC(C)(C=C(Cl)Cl)COCc1ccc(F)c(Oc2ccccc2)c1  mortality at 500 ppm  80 to 100%
 9  C=CC(C)(CC)COCc1cccc(Oc2ccccc2)c1 (centres unmarked)  mortality at 500 ppm  80 to 100%
10     CC(C)(C=C(F)Cl)COCc1cccc(Oc2ccccc2)n1  mortality at 500 ppm  80 to 100%
11          C=CC(C)(C)COCc1cccc(Oc2ccccc2)c1  mortality at 500 ppm  80 to 100%
12          C=CC(C)(C)COCc1cccc(Oc2ccccc2)n1  mortality at 500 ppm  80 to 100%
13  CC(C)(C=C(Cl)Cl)COCc1ccc(F)c(Cc2ccccc2)c1  mortality at 500 ppm       < 50%
14       C=CC(C)(C)COCc1ccc(F)c(Cc2ccccc2)c1  mortality at 500 ppm  80 to 100%
15    CC(C)(C=C(Cl)Cl)COCc1cccc(Oc2ccccc2)n1  mortality at 500 ppm  80 to 100%
16       C=CC(C)(C)COCc1ccc(F)c(Oc2ccccc2)c1  mortality at 500 ppm  80 to 100%
17        CC(C)(C=CCl)COCc1cccc(Oc2ccccc2)c1  mortality at 500 ppm  80 to 100%
18    CC(C)(C=C(Br)Br)COCc1cccc(Oc2ccccc2)c1  mortality at 500 ppm       < 50%
19      CC(C)(C=C(F)F)COCc1cccc(Oc2ccccc2)n1  mortality at 500 ppm  80 to 100%
20      CC(C)(C=C(F)F)COCc1cccc(Oc2ccccc2)c1  mortality at 500 ppm  80 to 100%
